Target or system Prostaglandin E synthase (Homo sapiens, UniProt O14684): recorded IC50 listed per item.
Endpoint: IC50 (nM)

| Mol | Uom | Value relation sign | Endpoint result |
| --- | --- | --- | --- |
| CC(C)c1ccc2c(c1)c(SC(C)(C)C)c(CC(C)(C)C(=O)ON)n2Cc1ccc(Cl)cc1 | nM | > | 10000 |
| CC(C)c1ccc2c(c1)c(C(=O)CC(C)(C)C)c(CC(C)(C)C(=O)O)n2Cc1ccc(Cl)cc1 | nM | = | 250 |
| Cc1c(CC(C)(C)C(=O)O)n(Cc2ccc(Cl)cc2)c2ccc(-c3cccc(-c4ccccc4)c3)cc12 | nM | = | 160 |
| COc1ccccc1-c1ccc(-c2ccc3c(c2)c(C)c(CC(C)(C)C(=O)O)n3Cc2ccc(Cl)cc2)cc1F | nM | = | 5 |
| Cc1cccc(-c2ccc(-c3ccc4c(c3)c(C)c(CC(C)(C)C(=O)O)n4Cc3ccc(Cl)cc3)cc2F)c1 | nM | = | 33 |
| COC(=O)C(C)(C)Cc1c(SC(C)(C)C)c2cc(C(C)C)ccc2n1Cc1ccc(Cl)cc1 | nM | = | 7200 |
| Cc1c(CC(C)(C)C(=O)O)n(Cc2ccc(Cl)cc2)c2ccccc12 | nM | = | 3200 |
| Cc1c(CC(C)(C)C(=O)O)n(Cc2ccc(Cl)cc2)c2ccc(-c3ccc(-c4cnccn4)c(F)c3)cc12 | nM | = | 32 |

###

target: UniProt O14684
pIC50: −log10 of the molar value.

| Mol | Value relation sign | pIC50 |
| --- | --- | --- |
| CC(C)c1ccc2c(c1)c(Oc1ccccc1)c(CC(C)(C)C(=O)O)n2Cc1ccc(Cl)cc1 | = | 6.19 |
| CC(C)c1ccc2[nH]c(CC(C)(C)C(=O)O)c(SC(C)(C)C)c2c1 | < | 5.00 |
| Cc1c(CC(C)(C)C(=O)O)n(Cc2ccc(Cl)cc2)c2ccc(C(C)(C)C)cc12 | = | 6.48 |
| Cc1c(CC(C)(C)C(=O)O)n(Cc2ccc(Cl)cc2)c2ccc(F)cc12 | = | 5.59 |
| CC(C)c1ccc2c(c1)c(C(=O)CSC(C)(C)C)c(CC(C)(C)C(=O)O)n2Cc1ccc(Cl)cc1 | = | 6.59 |
| Cc1ccc(-c2ccc(-c3ccc4c(c3)c(C)c(CC(C)(C)C(=O)O)n4Cc3ccc(Cl)cc3)cc2F)cc1 | = | 7.51 |
| CC(C)c1ccc2c(c1)c(SC(C)(C)C)c(CC(C)(C)C(=O)O)n2C | < | 5.00 |
| Cc1c(CC(C)(C)C(=O)O)n(Cc2ccc(Cl)cc2)c2ccc(-c3ccc(-c4ccccc4F)c(F)c3)cc12 | = | 8.10 |

###

Target chain: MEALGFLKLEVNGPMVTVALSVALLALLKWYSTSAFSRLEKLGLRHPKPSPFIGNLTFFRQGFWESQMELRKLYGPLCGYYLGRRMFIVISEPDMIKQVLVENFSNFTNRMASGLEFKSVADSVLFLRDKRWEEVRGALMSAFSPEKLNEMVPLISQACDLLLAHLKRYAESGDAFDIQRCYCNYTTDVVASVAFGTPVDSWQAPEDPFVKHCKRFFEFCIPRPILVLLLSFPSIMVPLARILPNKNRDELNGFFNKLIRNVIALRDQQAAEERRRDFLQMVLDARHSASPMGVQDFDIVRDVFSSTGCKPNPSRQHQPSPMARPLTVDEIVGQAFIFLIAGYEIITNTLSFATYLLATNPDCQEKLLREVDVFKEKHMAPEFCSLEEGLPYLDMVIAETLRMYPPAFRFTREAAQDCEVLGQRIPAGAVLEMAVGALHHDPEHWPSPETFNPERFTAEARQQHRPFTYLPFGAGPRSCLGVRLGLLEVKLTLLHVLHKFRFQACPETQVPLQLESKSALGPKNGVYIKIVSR

| Mol | IC50 / nM |
| --- | --- |
| Cc1ccccc1-c1ccc(-c2ccc3c(c2)c(C)c(CC(C)(C)C(=O)O)n3Cc2ccc(Cl)cc2)cc1F | 950 |
